System: MRC-5
Assay: Assay for cytotoxic effect (MTT)
Type: cell-based, human
Details: Homo sapiens, MRC5; normal MRC-5 embryonal fibroblast cells, MTT, 24 h
pIC50: −log10 of the molar value.
Please respond with reported pIC50 for every item in the list.

Data request: Give reported pIC50 value for COc1cccc2c1C(=O)c1c(O)c3c(c(O)c1C2=O)C[C@@](O)(C(=O)CO)C[C@@H]3O[C@H]1C[C@H](N)[C@H](O)[C@H](C)O1
Data returned: < 4.70

Data request: Indicate the recorded pIC50 value for this compound: CC(C)=CC[C@H](O)[C@@H](C)[C@H]1CC[C@@]2(C)C3=C(CC[C@]12C)[C@@]1(C)CC[C@@](C)(C(=O)O)[C@@H]1CC3
Data returned: < 4.00

Data request: Provide only the value of recorded pIC50 for CC(C)=CC[C@H](O)[C@@H](C)[C@H]1CC[C@@]2(C)C3=C(CC[C@]12C)[C@@]1(C)CC[C@H](O)[C@@](C)(C(=O)O)[C@@H]1CC3
Data returned: < 4.00

Data request: Look up and report measured pIC50 for this entry: Cc1coc(C(=O)[C@@H](C)[C@H]2CC[C@@]3(C)C4=C(CC[C@]23C)[C@@]2(C)CC[C@@](C)(C(=O)O)[C@@H]2CC4)c1
Data returned: < 4.00
